meta.source: patent US6150385A

molecular target: HCMV polymerase (Human cytomegalovirus, UniProt P08546); construct: made in house; host or cells: SF-9 insect cells infected with recombinant baculovirus; assay: HCMV polymerase assay (scintillation proximity assay); assay type: biochemical; conditions: percentage of inhibition at 25 μM concentration in CMV polymerase assay
Sequence (P08546 whole entry): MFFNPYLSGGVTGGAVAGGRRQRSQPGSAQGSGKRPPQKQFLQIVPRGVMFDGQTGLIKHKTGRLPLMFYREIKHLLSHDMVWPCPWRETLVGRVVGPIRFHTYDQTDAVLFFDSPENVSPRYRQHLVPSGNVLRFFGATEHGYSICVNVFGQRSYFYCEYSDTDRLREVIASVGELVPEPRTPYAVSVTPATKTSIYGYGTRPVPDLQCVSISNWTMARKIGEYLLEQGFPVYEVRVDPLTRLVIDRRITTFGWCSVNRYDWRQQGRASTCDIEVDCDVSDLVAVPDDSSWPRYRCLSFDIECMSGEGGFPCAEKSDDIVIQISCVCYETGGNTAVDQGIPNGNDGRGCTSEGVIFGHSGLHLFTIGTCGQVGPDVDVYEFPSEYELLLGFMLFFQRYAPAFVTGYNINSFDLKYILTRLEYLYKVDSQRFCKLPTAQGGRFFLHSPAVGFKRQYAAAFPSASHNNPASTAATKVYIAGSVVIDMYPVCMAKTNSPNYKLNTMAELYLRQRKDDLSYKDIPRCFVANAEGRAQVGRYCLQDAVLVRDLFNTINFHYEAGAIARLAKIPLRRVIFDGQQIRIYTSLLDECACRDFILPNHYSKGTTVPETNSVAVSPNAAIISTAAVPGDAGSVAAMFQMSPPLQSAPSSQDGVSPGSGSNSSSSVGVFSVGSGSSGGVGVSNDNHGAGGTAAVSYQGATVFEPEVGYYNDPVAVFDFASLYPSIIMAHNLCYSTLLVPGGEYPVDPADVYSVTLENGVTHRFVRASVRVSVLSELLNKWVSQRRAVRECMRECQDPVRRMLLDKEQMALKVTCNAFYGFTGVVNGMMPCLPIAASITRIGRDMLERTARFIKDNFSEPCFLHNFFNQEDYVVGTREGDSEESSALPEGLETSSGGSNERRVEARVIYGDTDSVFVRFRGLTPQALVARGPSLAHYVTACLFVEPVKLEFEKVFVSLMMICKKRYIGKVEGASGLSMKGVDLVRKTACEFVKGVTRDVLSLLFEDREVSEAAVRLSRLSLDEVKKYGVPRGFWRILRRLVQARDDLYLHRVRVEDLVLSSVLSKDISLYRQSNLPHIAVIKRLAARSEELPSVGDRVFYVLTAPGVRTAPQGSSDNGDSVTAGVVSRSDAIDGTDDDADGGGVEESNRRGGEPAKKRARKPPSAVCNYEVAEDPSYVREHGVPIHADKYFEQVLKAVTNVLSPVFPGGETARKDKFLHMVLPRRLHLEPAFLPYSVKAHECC
Observable: inhibition at 25 µM (%)
Numeric only. Scale: %

Prompt line: Requested read-out: inhibition at 25 µM. Entry: `CCCCCCCCCCCNc1nnc(NC(=O)c2c(Cl)cccc2Cl)s1`
Response line: 24.9

Prompt line: // same read-out, input: `NS(=O)(=O)c1ccc(CNc2nnc(NC(=O)c3ccc(Cl)c(Cl)c3)s2)cc1`
Response line: 33.9

Prompt line: Next entry: CC1(C)C2CC[C@@H](CNc3nnc(NC(=O)c4ccc(C#N)cc4)s3)C1C2 (stereo partly drawn)
Response line: 34.2

Prompt line: Item: `O=C(/C=C/c1ccccc1)Nc1nnc(NC2CCCCCC2)s1`
Response line: 38.1

Prompt line: Also `O=C(Nc1nnc(NCc2ccc(F)cc2)s1)c1cc(F)cc(F)c1` ?
Response line: 21.4

Prompt line: Then this molecule: `COc1ccc(CNc2nnc(NC(=O)c3ccc4c(c3)C(=O)OC4=O)s2)cc1OC`
Response line: 98.7

Prompt line: Would you mind doing O=C(Nc1nnc(NC2CCCc3ccccc32)s1)c1cc(F)cc(F)c1 (stereo not drawn) as well?
Response line: 20.1

Prompt line: And the next one, `Cc1ccc(C(=O)Nc2nnc(NCCCN3CCCC3=O)s2)cc1` ?
Response line: 25.9

Prompt line: How about this molecule: `O=C(/C=C/c1ccccc1)Nc1nnc(NCCCCc2ccccc2)s1`
Response line: 67.9
